# System: Jurkat (clone E6-1) cells with NFAT luciferase reporter
# measurementProtocol: Jurkat reporter assay (NFAT Luciferase)
# Type: cell-based
# experimentalConditions: Homo sapiens; Jurkat NFAT luciferase reporter cells, anti-CD3 stimulation, 6 hr; read-out: Jurkat NFAT EC50
attributeMeasured: EC50

Take a look at these entries with their results.
• CC(NCC1(O)CCC1)c1cc(F)c2oc(-c3cc(-c4ccc(F)cc4-c4nncn4C)cc(C4CC4)n3)nc2c1 (stereo in doubt) [AFR-1] = < 200 nM
• Cn1cnnc1-c1ccccc1-c1cccc(-c2nc3cc(CN[C@H]4CCC[C@@H]4O)cc(C(F)(F)F)c3o2)c1 = 1000 to 10000 nM
• COC[C@H](C)NCc1cc(C(F)(F)F)c2oc(-c3cccc(-c4ccc(F)cc4-c4nncn4C)c3)nc2c1 = < 200 nM
• Cc1cc(CN[C@@H]2CCC[C@@H]2O)cc2nc(-c3cccc(-c4ccc(F)cc4-c4nncn4C)c3)oc12 = < 200 nM
• Cn1cnnc1-c1cc(F)ccc1-c1cccc(-c2nc3cc(CN4CCC5(CC4)CC5)cc(C(F)(F)F)c3o2)c1 = 1000 to 10000 nM

Problem: Item CCOc1cc(-c2ccc(F)cc2-c2nncn2C)cc(-c2nc3cc(CN[C@@H]4CCC[C@@H]4O)cc(OC)c3o2)n1 has what recorded EC50?
Solution: < 200 nM

Problem: Repeat with COc1cc(CNC2CCC2)cc2nc(-c3cccc(-c4ccc(F)cc4-c4nncn4C)c3)oc12
Solution: 200 to 1000 nM

Problem: Repeat with [2H]C([2H])([2H])N(Cc1cc(C(F)(F)F)c2oc(-c3cccc(-c4ccc(F)cc4-c4nncn4C)c3)nc2c1)[C@@H]1CCC[C@@H]1O
Solution: < 200 nM

Problem: Repeat with Cn1cnnc1-c1cc(F)ccc1-c1cc(-c2nc3cc(CN[C@@H]4CCC[C@@H]4O)ccc3o2)cc(C2CC2)c1
Solution: < 200 nM

Problem: Repeat with COc1cc(CN[C@H]2C[C@@H](O)C2)cc2nc(-c3cccc(-c4ccc(F)cc4-c4nncn4C)c3)oc12
Solution: 1000 to 10000 nM

Problem: Repeat with C[C@H](O)CNCc1cc(C(F)(F)F)c2oc(-c3cccc(-c4ccc(F)cc4-c4nncn4C)c3)nc2c1
Solution: 200 to 1000 nM

Problem: Repeat with COc1cc(CN[C@@H]2CCC[C@@H]2O)cc2nc(-c3cccc([C@]4(c5nncn5C)C[C@@H](C)C4)c3)oc12
Solution: 200 to 1000 nM

Problem: Repeat with Cn1cnnc1-c1cc(F)ccc1-c1cccc(-c2cn3cc(CO)ccc3n2)c1
Solution: 10000 to 50000 nM
